Test: self-splicing fitness, log relative to wild type (ln ratio); higher = more splicing; Tetrahymena group I intron in knt gene, E. coli kanamycin selection, DiMSum; sequences stand for … in CUCUCU…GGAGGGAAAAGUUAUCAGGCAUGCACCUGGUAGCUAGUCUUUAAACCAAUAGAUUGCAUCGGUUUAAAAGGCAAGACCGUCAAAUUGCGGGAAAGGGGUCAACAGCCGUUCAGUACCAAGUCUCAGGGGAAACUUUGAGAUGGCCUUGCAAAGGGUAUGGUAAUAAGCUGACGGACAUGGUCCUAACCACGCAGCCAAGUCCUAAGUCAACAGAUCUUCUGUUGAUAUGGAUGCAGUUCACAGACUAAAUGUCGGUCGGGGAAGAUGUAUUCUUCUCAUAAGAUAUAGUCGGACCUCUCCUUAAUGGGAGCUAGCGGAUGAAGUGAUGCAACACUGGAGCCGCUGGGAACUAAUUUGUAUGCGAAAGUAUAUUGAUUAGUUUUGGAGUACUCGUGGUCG;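 also: selection with 25 µg/mL kanamycin versus none on LB agar overnight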
Conditions: 30 °C
Kindly supply the reported self-splicing fitness (ln) values for the records listed here.
# print the numeric value only

I would be grateful if you could share the reported self-splicing fitness (ln) for `AUUGAGCAAUAUUACGCGGC` .
-3.26

I would be grateful if you could share the reported self-splicing fitness (ln) for `UUAGAGCAAUAUUACGGGGC` .
-3.24

I would be grateful if you could share the reported self-splicing fitness (ln) for `AAAAAGCAAUAUUACGCCCU` .
0.324

I would be grateful if you could share the reported self-splicing fitness (ln) for `ACCAAGCAAUAUUACGCAUG` .
-3.75

I would be grateful if you could share the reported self-splicing fitness (ln) for `AUUCAGCAAUAUUACGGGCU` .
-2.2

I would be grateful if you could share the reported self-splicing fitness (ln) for `GACCAGCAAUAUUACGCUAU` .
-1.28

I would be grateful if you could share the reported self-splicing fitness (ln) for `CCUCAGCAAUAUUACGACCG` .
-0.986

I would be grateful if you could share the reported self-splicing fitness (ln) for `UAGUAGCAAUAUUACGGUAC` .
-3.85

I would be grateful if you could share the reported self-splicing fitness (ln) for `GCUCAGCAAUAUUACGAUUG` .
-2.83

I would be grateful if you could share the reported self-splicing fitness (ln) for `CAUAAGCAAUAUUACGAAGC` .
-3.09

I would be grateful if you could share the reported self-splicing fitness (ln) for `ACACAGCAAUAUUACGUACC` .
-1.43

I would be grateful if you could share the reported self-splicing fitness (ln) for `GUUAAGCAAUAUUACGUUUU` .
-3.11

I would be grateful if you could share the reported self-splicing fitness (ln) for `ACUAAGCAAUAUUACGACUA` .
-1.52

I would be grateful if you could share the reported self-splicing fitness (ln) for `UCUUAGCAAUAUUACGUCGA` .
-0.705

I would be grateful if you could share the reported self-splicing fitness (ln) for `GGUCAGCAAUAUUACGAAUA` .
-0.866

I would be grateful if you could share the reported self-splicing fitness (ln) for `CCAUAGCAAUAUUACGUAAA` .
-4.17
